# TEST_DETAILS: yeast display, Sf9 membrane polyspecificity reagent, FACS + sequencing; frameworks hold sequencing errors
QUANTITY_KIND: polyreactivity (PSR sort gate)

The cases that follow already have their polyreactivity (PSR sort gate) on record.
QVQLVESGGGLVQAGGSLRLSSAASGFIFSTYAMGWYRQAPGKEREFVAAITRTGTRTYYADSVKGRFTISRDNAKNTVYLQMTSLKPEDTAVYYCAARAGVEAYGSRYGYWGQGTQGTVSS high polyreactivity
QVQLVESGGGLVQAGGSLRLSCAASGSIFYRNAMGGYRQAPGKERELVAAIAGTGGSTYYADSVKGRFTISRDNAKNTVYLQMNSLKPEDTAVYYCASGVTYRHDYWRQGTQVTVSS high polyreactivity
QVQLVESGGGLVQAGGSLRLSCAASGRTFPRNAMGWYRQAPGKERELVARINWSGGSTTYADSVKGRFTISRDNAKNTVYLQMNSLKPEDTAVYYCNARPYTSSFTKYGPSGYWGQGTQVTVSS high polyreactivity
QVQLVESGGGLVQEGGSLRLSCAASGITFGTNAMGWYRQAPGKERELVAAIRRDGSTYYADSVKGRFTISRDNAKNTVYLQMNSLKPEDTAVYYCAATYWGRAYQGYRNLLYGYWGQGTQVTVSS high polyreactivity
QVQLVESGGGLVQAGGSLRLSCAASGIFVTYAMGWYRQAPGTERELVAAIRYSGDSTYYADSVKGRFTISRDNAKNTVYLQMNSLKPEETAVYYCAATKGWSRYEYWGQGTQVTVSS low polyreactivity

**Query** Give the reported polyreactivity (PSR sort gate) for this sequence. "QVQLVESGGGLVQAGGSLRLSCAASGSTFDNYVMGWYRQAPGKERELVAAISRRGGNTYYADSVKGRFTISRDNAKNTVYLQMNSLKPEDTAVYYCAADPYGYGHWGDYWGQGTQVTVSS"
**Result** low polyreactivity

**Query** Give the reported polyreactivity (PSR sort gate) for this sequence. "QVQLVESGGGLVQAGGSLRLSCAASGSIRRYAMGWYRQAPGKERELVAAISGSGVSTYYADSVKGRFTISRDNAKNTVYLQMNSLKPEDTAVYYCAAAAIYFRYDYWGQGTQVTVSS"
**Result** high polyreactivity

**Query** Give the reported polyreactivity (PSR sort gate) for this sequence. "QVQLVESGGGLVQAGGSLRLSCAASGRIFDVNAMGWYRQAPGKERELVAAINKSGGTTYYADSVKGRFTISRDNAKNTVYLQMYSLKPEDTAVYYCAADSYSSRYDYWGQGTQVTVSS"
**Result** high polyreactivity
